Ref: paper PMC7211195

# method.notes: Lapatinib pharmacokinetics in rat blood plasma (BP), HPLC-MS/MS, noncompartmental analysis
# Assay type: in vivo, rats
# study.conditions: male, Wistar, rat, plasma, po, 100 mg/kg, blood plasma; lapatinib 100 mg/kg oral alone (IIL)

{"columns": ["structure", "unit.info", "AUC(0-inf)"],
 "data": [
  ["CS(=O)(=O)CCNCc1ccc(-c2ccc3ncnc(Nc4ccc(OCc5cccc(F)c5)c(Cl)c4)c3c2)o1", "ng·h/mL", 37200]
]}

---

# method.notes: Lapatinib pharmacokinetics in rat blood plasma (BP), HPLC-MS/MS, noncompartmental analysis
# Type: in vivo, rats
# study.conditions: male, Wistar, rat, plasma, po, 100 mg/kg, lapatinib p.o. 100 mg/kg alone, 8 h; read-out: Clapatinib in BP, single rat

{"columns": ["structure", "concentration at 8 h (ng/mL)"],
 "data": [
  ["CS(=O)(=O)CCNCc1ccc(-c2ccc3ncnc(Nc4ccc(OCc5cccc(F)c5)c(Cl)c4)c3c2)o1", 2130]
]}

---

# method.notes: Lapatinib pharmacokinetics and uptake in rat brain tissue (BT)
# Format: in vivo, rats
# study.conditions: male, Wistar, rat, brain tissue homogenate, oral, lapatinib 100 mg/kg + elacridar, 1 h; read-out: BT corr (BT homogenate), S

{"columns": ["compound", "concentration at 1 h"],
 "data": [
  ["CS(=O)(=O)CCNCc1ccc(-c2ccc3ncnc(Nc4ccc(OCc5cccc(F)c5)c(Cl)c4)c3c2)o1 [lapatinib]", "79.1 ng/mL"]
]}

---

# method.notes: Lapatinib pharmacokinetics and uptake in rat brain tissue (BT)
# Assay type: in vivo, rats
# study.conditions: male, Wistar, rat, brain tissue homogenate, po, 100 mg/kg, lapatinib p.o. 100 mg/kg alone, 8 h; read-out: Clapatinib in BT, S (medium value)
# Description: This study was conducted on rats, which are a promising model to predict P-gp-based drug-drug interactions at the human BBB [15]. The animals were allowed to acclimate for one week before the beginning of the experiments. Adult male Wistar-strain rats (weight 470–525 g) were used in the study. […]

{"columns": ["structure", "concentration at 8 h (ng/mL)"],
 "data": [
  ["CS(=O)(=O)CCNCc1ccc(-c2ccc3ncnc(Nc4ccc(OCc5cccc(F)c5)c(Cl)c4)c3c2)o1", 85.5]
]}

---

# method.notes: Lapatinib pharmacokinetics and uptake in rat brain tissue (BT);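 on BT corr (BT homogenate), single rat: brain concentration corrected for residual brain blood by the Fridén method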
# Assay type: in vivo, rats
# study.conditions: male, Wistar, rat, brain tissue homogenate, corrected for residual blood, oral, lapatinib 100 mg/kg + elacridar, 12 h; read-out: BT corr (BT homogenate), single rat

{"columns": ["structure", "concentration at 12 h [ng/mL]"],
 "data": [
  ["CS(=O)(=O)CCNCc1ccc(-c2ccc3ncnc(Nc4ccc(OCc5cccc(F)c5)c(Cl)c4)c3c2)o1", 63.6]
]}

---

# method.notes: Lapatinib pharmacokinetics and uptake in rat brain tissue (BT);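 on BT corr (BT homogenate corrected), single rat: brain concentration corrected for residual brain blood by the Fridén method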
# Type: in vivo, rats
# study.conditions: male, Wistar, rat, brain tissue homogenate, corrected for residual blood, po, 100 mg/kg, lapatinib p.o. 100 mg/kg alone, 3 h; read-out: BT corr (BT homogenate corrected), single rat

{"columns": ["structure", "unit.info", "concentration at 3 h"],
 "data": [
  ["CS(=O)(=O)CCNCc1ccc(-c2ccc3ncnc(Nc4ccc(OCc5cccc(F)c5)c(Cl)c4)c3c2)o1", "ng/mL", 139]
]}

---

# method.notes: Lapatinib pharmacokinetics and uptake in rat cerebrospinal fluid (CSF)
# Assay type: in vivo, rats
# study.conditions: male, Wistar, rat, cerebrospinal fluid, oral, lapatinib 100 mg/kg + elacridar, 4 h; read-out: Clapatinib in CSF, S

{"columns": ["compound", "unit.info", "concentration at 4 h"],
 "data": [
  ["CS(=O)(=O)CCNCc1ccc(-c2ccc3ncnc(Nc4ccc(OCc5cccc(F)c5)c(Cl)c4)c3c2)o1 [lapatinib]", "ng/mL", 91]
]}

---

# method.notes: Lapatinib pharmacokinetics in rat blood plasma (BP), HPLC-MS/MS, noncompartmental analysis
# Assay type: in vivo, rats
# study.conditions: male, Wistar, rat, plasma, oral, lapatinib 100 mg/kg + elacridar, 2 h; read-out: Clapatinib in BP, S
property.measured: concentration at 2 h (ng/mL)

{"columns": ["structure", "property.measured", "result.value"],
 "data": [
  ["CS(=O)(=O)CCNCc1ccc(-c2ccc3ncnc(Nc4ccc(OCc5cccc(F)c5)c(Cl)c4)c3c2)o1", "concentration at 2 h", 3070]
]}

---

# method.notes: Lapatinib pharmacokinetics and uptake in rat cerebrospinal fluid (CSF)
# Assay type: in vivo, rats
# study.conditions: male, Wistar, rat, cerebrospinal fluid (CSF), po, 100 mg/kg, lapatinib p.o. 100 mg/kg alone, 4 h; read-out: Clapatinib in CSF, S (medium value)
property.measured: concentration at 4 h (ng/mL)

{"columns": ["structure", "result.value"],
 "data": [
  ["CS(=O)(=O)CCNCc1ccc(-c2ccc3ncnc(Nc4ccc(OCc5cccc(F)c5)c(Cl)c4)c3c2)o1", 13.8]
]}

---

# method.notes: Lapatinib pharmacokinetics and uptake in rat brain tissue (BT)
# Format: in vivo, rats
# study.conditions: male, Wistar, rat, brain tissue homogenate, oral, lapatinib 100 mg/kg + elacridar, 24 h; read-out: BT corr (BT homogenate), S

{"columns": ["structure", "concentration at 24 h [ng/mL]"],
 "data": [
  ["CS(=O)(=O)CCNCc1ccc(-c2ccc3ncnc(Nc4ccc(OCc5cccc(F)c5)c(Cl)c4)c3c2)o1", 44.7]
]}

---

# method.notes: Lapatinib pharmacokinetics and uptake in rat brain tissue (BT)
# Format: in vivo, rats
# study.conditions: male, Wistar, rat, brain tissue homogenate, corrected for residual blood, po, 100 mg/kg, lapatinib p.o. 100 mg/kg alone, 12 h; read-out: BT corr (BT homogenate corrected), S
# Procedure: This study was conducted on rats, which are a promising model to predict P-gp-based drug-drug interactions at the human BBB [15]. The animals were allowed to acclimate for one week before the beginning of the experiments. Adult male Wistar-strain rats (weight 470–525 g) were used in the study. […]

{"columns": ["molecule", "concentration at 12 h (ng/mL)"],
 "data": [
  ["CS(=O)(=O)CCNCc1ccc(-c2ccc3ncnc(Nc4ccc(OCc5cccc(F)c5)c(Cl)c4)c3c2)o1 [lapatinib]", 44.5]
]}

---

# method.notes: Lapatinib pharmacokinetics and uptake in rat brain tissue (BT)
# Assay type: in vivo, rats
# study.conditions: male, Wistar, rat, brain, po, 100 mg/kg, brain tissue; lapatinib 100 mg/kg oral alone (IIL)

{"columns": ["structure", "unit.info", "Tmax"],
 "data": [
  ["CS(=O)(=O)CCNCc1ccc(-c2ccc3ncnc(Nc4ccc(OCc5cccc(F)c5)c(Cl)c4)c3c2)o1", "h", 4.5]
]}

---

# method.notes: Lapatinib pharmacokinetics and uptake in rat cerebrospinal fluid (CSF)
# Format: in vivo, rats
# study.conditions: male, Wistar, rat, cerebrospinal fluid, oral, lapatinib 100 mg/kg + elacridar, 3 h; read-out: Clapatinib in CSF, single rat
# Experimental: This study was conducted on rats, which are a promising model to predict P-gp-based drug-drug interactions at the human BBB [15]. The animals were allowed to acclimate for one week before the beginning of the experiments. Adult male Wistar-strain rats (weight 470–525 g) were used in the study. […]

{"columns": ["structure", "unit.info", "concentration at 3 h"],
 "data": [
  ["CS(=O)(=O)CCNCc1ccc(-c2ccc3ncnc(Nc4ccc(OCc5cccc(F)c5)c(Cl)c4)c3c2)o1", "ng/mL", 45.6]
]}

---

# method.notes: Lapatinib pharmacokinetics and uptake in rat brain tissue (BT)
# Assay type: in vivo, rats
# study.conditions: male, Wistar, rat, brain tissue homogenate, po, 100 mg/kg, lapatinib p.o. 100 mg/kg alone, 3 h; read-out: BT corr (BT homogenate corrected), S

{"columns": ["molecule", "unit.info", "concentration at 3 h"],
 "data": [
  ["CS(=O)(=O)CCNCc1ccc(-c2ccc3ncnc(Nc4ccc(OCc5cccc(F)c5)c(Cl)c4)c3c2)o1 [lapatinib]", "ng/mL", 111]
]}

---

# method.notes: Lapatinib pharmacokinetics and uptake in rat brain tissue (BT)
# Format: in vivo, rats
# study.conditions: male, Wistar, rat, brain tissue homogenate, oral, lapatinib 100 mg/kg + elacridar, 4 h; read-out: BT corr (BT homogenate), S

{"columns": ["compound", "unit.info", "concentration at 4 h"],
 "data": [
  ["CS(=O)(=O)CCNCc1ccc(-c2ccc3ncnc(Nc4ccc(OCc5cccc(F)c5)c(Cl)c4)c3c2)o1 [lapatinib]", "ng/mL", 85]
]}

---

# method.notes: Lapatinib pharmacokinetics and uptake in rat cerebrospinal fluid (CSF)
# Type: in vivo, rats
# study.conditions: male, Wistar, rat, cerebrospinal fluid (CSF), po, 100 mg/kg, lapatinib p.o. 100 mg/kg alone, 0.25 h; read-out: Clapatinib in CSF, S (medium value)
property.measured: concentration at 0.25 h

{"columns": ["compound", "property.measured", "result.value"],
 "data": [
  ["CS(=O)(=O)CCNCc1ccc(-c2ccc3ncnc(Nc4ccc(OCc5cccc(F)c5)c(Cl)c4)c3c2)o1 [lapatinib]", "concentration at 0.25 h", "3.73 ng/mL"]
]}
